Each entry below carries its reported TGI.
Tested on: UACC-62
Experiment: NCI 60 panel five-dose growth inhibition, Melanoma
Format: cell-based, human
Settings: UACC-62, Melanoma
Your answer should be a plain number; it is taken to be in µM.

The following compounds have reported results that may help.
1. COc1cc(-c2n[nH]nc2-c2ccc3c(c2)OCCO3)cc(OC)c1OC [Example 7]: 30.8
2. COc1cc(-c2n[nH]nc2-c2cc(OC)c(OC)c(OC)c2)cc(OC)c1OC [Example 3]: 4.61

Next, consider the following compound.
Problem: State TGI (UACC-62) of COc1ccc(-c2n[nH]nc2-c2cc(OC)c(OC)c(OC)c2)cc1 [Example 6] .
Result: 21.2

---

Test system: KM12
Listing of entries alongside the reported GI50.
Use nM as the unit, but write only the number.

Please review the entries below; each comes with its answer.
1) COc1cc(-c2n[nH]nc2-c2cc(OC)c(OC)c(OC)c2)cc(OC)c1OC: 35.3
2) COc1cc(-c2n[nH]nc2-c2ccc3c(c2)OCCO3)cc(OC)c1OC: 70

Let us examine a further case.
Problem: Look up and report measured GI50 for this entry: COc1cc(-c2n[nH]nc2-c2ccc3ccccc3n2)cc(OC)c1OC
Result: 29.8

---

Tested on: MDA-MB-231/ATCC
Test: NCI 60 panel five-dose growth inhibition, Breast Cancer
Type: cell-based, human
Details: Homo sapiens
metric_name: GI50

Here is how some compounds turned out for GI50.
1. COc1ccc(-c2n[nH]nc2-c2cc(OC)cc(OC)c2)cc1: < 10 nM
2. COc1cc(-c2n[nH]nc2-c2ccc3c(c2)OCCO3)cc(OC)c1OC: 529 nM
3. COc1cc(-c2n[nH]nc2-c2ccc3ccccc3n2)cc(OC)c1OC: 46 nM

Problem: Identify GI50 associated with the compound COc1cc(-c2n[nH]nc2-c2cc(OC)c(OC)c(OC)c2)cc(OC)c1OC
Result: 94.7 nM

Problem: Return reported GI50. Input compound: COc1ccc(-c2n[nH]nc2-c2cc(OC)c(OC)c(OC)c2)cc1
Result: 44.4 nM

---

Tested on: CCRF-CEM
Assay: NCI 60 panel five-dose growth inhibition, Leukemia
Type: cell-based, human
metric_name: TGI

Previously resolved entries follow.
1) COc1cc(-c2n[nH]nc2-c2ccc3c(c2)OCCO3)cc(OC)c1OC [Example 7]: >100 µM
2) COc1cc(-c2n[nH]nc2-c2cc(OC)c(OC)c(OC)c2)cc(OC)c1OC [Example 3]: >100 µM

Problem: Using known records, supply TGI for COc1ccc(-c2n[nH]nc2-c2cc(OC)c(OC)c(OC)c2)cc1 [Example 6]
Result: >100 µM

---

Reported GI50 for target or system 5K-MEL-5, by entry.

# example entries with known answers
1. COc1ccc(-c2n[nH]nc2-c2cc(OC)c(OC)c(OC)c2)cc1: < 0.01 µM
2. COc1cc(-c2n[nH]nc2-c2ccc3c(c2)OCCO3)cc(OC)c1OC: > 1 µM

Consider the record given below.
Problem: Note GI50 for the molecule shown: COc1ccc(-c2n[nH]nc2-c2cc(OC)cc(OC)c2)cc1
Result: < 0.01 µM

---

TGI listing for selected compounds.
Tested on: HOP-62
Assay: NCI 60 panel five-dose growth inhibition, Non-Small Cell Lung Cancer
Assay type: cell-based, human
Settings: HOP-62, Non-Small Cell Lung Cancer

Problem: Give me measured TGI, please, for this compound: COc1cc(-c2n[nH]nc2-c2cc(OC)c(OC)c(OC)c2)cc(OC)c1OC
Result: >100 µM

Problem: Tell me measured TGI for COc1cc(-c2n[nH]nc2-c2ccc3ccccc3n2)cc(OC)c1OC please.
Result: >100 µM

Problem: Kindly indicate its recorded TGI. Item: COc1cc(-c2n[nH]nc2-c2ccc3c(c2)OCCO3)cc(OC)c1OC
Result: >100 µM
